test system: Corynebacterium jeikeium; assay: Antimicrobial activity against Corynebacterium jeikeium isolates by CLSI M45-A protocol based microdilution method; format: functional
value_type: MIC50 (µg/mL)
Output spec: scalar in µg/mL, unitless text.

(Q) Report MIC50 for CN(C)c1ccc(O)c2c1C[C@H]1C[C@H]3[C@H](N(C)C)C(O)=C(C(N)=O)C(=O)[C@@]3(O)C(O)=C1C2=O please.
(A) 0.06

(Q) Here is the next molecule: CN(C)[C@@H]1C(O)=C(C(N)=O)C(=O)[C@@]2(O)C(O)=C3C(=O)c4c(O)cccc4[C@@](C)(O)[C@H]3C[C@@H]12
(A) 0.06

----------
Consider the following molecules; for each one, report its MIC50.
system: Corynebacterium minutissimum; test: Antimicrobial activity against Corynebacterium minutissimum isolates by CLSI M45-A protocol based microdilution method; type: functional

(Q) Query (molecule): CN[C@H](CC(C)C)C(=O)N[C@H]1C(=O)N[C@@H](CC(N)=O)C(=O)N[C@H]2C(=O)N[C@H]3C(=O)N[C@H](C(=O)N[C@H](C(=O)O)c4cc(O)cc(O)c4-c4cc3ccc4O)[C@H](O)c3ccc(c(Cl)c3)Oc3cc2cc(c3O[C@@H]2O[C@H](CO)[C@@H](O)[C@H](O)[C@H]2O[C@H]2C[C@](C)(N)[C@H](O)[C@H](C)O2)Oc2ccc(cc2Cl)[C@H]1O ; field requested: MIC50
(A) 0.25 mg/L

(Q) Let us now turn to CCC[C@@H]1C[C@@H](C(=O)N[C@@H]([C@H]2O[C@H](SC)[C@H](O)[C@@H](O)[C@H]2O)[C@H](C)Cl)N(C)C1
(A) > 16 mg/L

(Q) Param item: CN(C)c1cc(NC(=O)CNC(C)(C)C)c(O)c2c1C[C@H]1C[C@H]3[C@H](N(C)C)C(O)=C(C(N)=O)C(=O)[C@@]3(O)C(O)=C1C2=O
(A) ≤ 0.015 mg/L

(Q) Then C[C@H]1COc2c(N3CCN(C)CC3)c(F)cc3c(=O)c(C(=O)O)cn1c23.C[C@H]1COc2c(N3CCN(C)CC3)c(F)cc3c(=O)c(C(=O)O)cn1c23.O ?
(A) 0.06 mg/L
